Every entry's value here was drawn from ChEMBL document CHEMBL3603757.

target: Phosphatidylinositol 4,5-bisphosphate 3-kinase catalytic subunit delta isoform (Homo sapiens); assay: Inhibition of P110delta (unknown origin) using PI or PIP2:PS as substrate measured for 15 to 60 mins by TR-FRET analysis
Sequence (O00329 whole entry, canonical isoform): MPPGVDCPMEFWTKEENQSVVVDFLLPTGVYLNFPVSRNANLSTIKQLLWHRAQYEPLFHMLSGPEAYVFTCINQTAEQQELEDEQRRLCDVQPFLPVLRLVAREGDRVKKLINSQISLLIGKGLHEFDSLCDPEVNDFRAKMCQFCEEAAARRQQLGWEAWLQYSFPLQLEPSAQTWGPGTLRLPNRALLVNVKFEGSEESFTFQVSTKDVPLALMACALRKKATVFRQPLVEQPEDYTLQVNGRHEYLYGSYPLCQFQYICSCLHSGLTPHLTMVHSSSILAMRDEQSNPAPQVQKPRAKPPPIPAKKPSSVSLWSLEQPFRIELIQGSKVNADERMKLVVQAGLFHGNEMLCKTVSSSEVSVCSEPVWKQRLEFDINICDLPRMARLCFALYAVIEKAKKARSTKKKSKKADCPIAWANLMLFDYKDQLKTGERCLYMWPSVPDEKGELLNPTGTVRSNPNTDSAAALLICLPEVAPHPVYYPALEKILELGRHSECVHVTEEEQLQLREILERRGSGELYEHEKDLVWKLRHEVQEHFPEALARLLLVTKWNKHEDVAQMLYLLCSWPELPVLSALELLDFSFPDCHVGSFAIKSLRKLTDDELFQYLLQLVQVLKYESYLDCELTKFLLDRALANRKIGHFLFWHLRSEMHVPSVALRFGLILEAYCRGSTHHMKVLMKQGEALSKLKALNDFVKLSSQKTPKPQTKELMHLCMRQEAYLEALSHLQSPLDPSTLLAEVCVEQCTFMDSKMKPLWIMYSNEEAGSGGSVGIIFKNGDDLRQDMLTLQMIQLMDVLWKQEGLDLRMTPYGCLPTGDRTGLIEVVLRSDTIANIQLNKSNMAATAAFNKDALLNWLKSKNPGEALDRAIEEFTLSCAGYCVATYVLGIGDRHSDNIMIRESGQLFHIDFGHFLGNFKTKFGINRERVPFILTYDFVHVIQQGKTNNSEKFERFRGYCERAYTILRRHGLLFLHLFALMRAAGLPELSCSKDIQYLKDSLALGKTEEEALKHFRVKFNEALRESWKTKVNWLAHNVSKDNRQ
measured-parameter: pIC50
Scale: negative log10 of molar concentration, which is what pIC50 denotes.

Q. Quick check: pIC50 of C[C@@H]1CCN(C(=O)Nc2nc3c(s2)-c2cc(C(C)(C)C(F)(F)F)ncc2OC3)[C@@H]1C(N)=O ?
A. 6.66

Q. Quick check: pIC50 of Cc1nc(NC(=O)N2CC[C@@H](C)[C@H]2C(N)=O)sc1-c1ccnc(C(C)(C)C(F)(F)F)c1 ?
A. 6.41

###

assay: Volume of distribution at steady state in Sprague-Dawley rat at 1 mg/kg, iv; assay type: ADME, organism-based; details: in vivo, read-out: Vdss
measured-parameter: Vd (L/kg)
// return numeric value only (unit: L/kg, not printed)

Q. Quick check: Vd of C[C@@H]1CCN(C(=O)Nc2nc3c(s2)-c2cc(C(C)(C)C(F)(F)F)ncc2OC3)[C@@H]1C(N)=O ?
A. 1.8

###

assay: Plasma protein binding in rat; type: ADME, cell-free; settings: read-out: PPB (converted)
measured-parameter: fraction unbound
Write the value as a bare number.

Q. Quick check: fraction unbound of C[C@@H]1CCN(C(=O)Nc2nc3c(s2)-c2cc(C(C)(C)C(F)(F)F)ncc2OC3)[C@@H]1C(N)=O ?
A. 0.033

###

Quick list: pIC50 per entry.
molecular target: Phosphatidylinositol 4,5-bisphosphate 3-kinase catalytic subunit alpha isoform (Homo sapiens); assay: Inhibition of myristoylated human P110alpha expressed in Rat1 cells assessed as inhibition of Akt phosphorylation at Serine 473 by Western blot analysis; format: cell-based
Sequence (P42336 whole entry, canonical isoform): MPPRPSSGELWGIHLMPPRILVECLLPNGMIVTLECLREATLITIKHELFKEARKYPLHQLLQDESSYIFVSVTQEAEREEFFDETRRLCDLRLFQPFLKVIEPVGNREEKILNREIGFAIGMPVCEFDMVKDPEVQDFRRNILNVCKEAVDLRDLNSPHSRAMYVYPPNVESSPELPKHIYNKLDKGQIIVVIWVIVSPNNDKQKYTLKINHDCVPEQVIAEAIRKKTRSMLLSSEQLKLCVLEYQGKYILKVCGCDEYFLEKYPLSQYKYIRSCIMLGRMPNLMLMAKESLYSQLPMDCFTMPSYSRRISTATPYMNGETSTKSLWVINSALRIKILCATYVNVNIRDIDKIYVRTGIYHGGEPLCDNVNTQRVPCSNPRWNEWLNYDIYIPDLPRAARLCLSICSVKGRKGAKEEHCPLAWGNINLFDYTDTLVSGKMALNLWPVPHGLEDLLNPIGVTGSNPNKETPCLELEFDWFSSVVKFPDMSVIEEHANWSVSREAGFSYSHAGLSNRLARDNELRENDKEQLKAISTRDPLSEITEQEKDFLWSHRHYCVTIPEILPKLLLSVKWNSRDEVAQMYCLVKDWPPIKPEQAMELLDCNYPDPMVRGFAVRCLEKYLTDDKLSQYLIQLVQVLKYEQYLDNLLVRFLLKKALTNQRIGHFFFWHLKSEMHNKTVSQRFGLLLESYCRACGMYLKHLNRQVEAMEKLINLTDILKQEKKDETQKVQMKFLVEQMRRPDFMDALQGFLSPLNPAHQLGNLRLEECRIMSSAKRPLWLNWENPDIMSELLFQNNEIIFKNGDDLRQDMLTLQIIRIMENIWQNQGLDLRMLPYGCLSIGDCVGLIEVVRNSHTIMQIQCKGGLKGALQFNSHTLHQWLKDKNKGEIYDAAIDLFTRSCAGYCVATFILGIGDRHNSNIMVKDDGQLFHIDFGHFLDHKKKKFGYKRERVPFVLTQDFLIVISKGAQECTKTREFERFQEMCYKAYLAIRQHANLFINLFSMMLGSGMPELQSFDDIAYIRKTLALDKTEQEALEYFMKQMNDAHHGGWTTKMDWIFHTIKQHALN
Scale: negative log10 of molar concentration, which is what pIC50 denotes.

>  <structure-smiles>
Cc1nc(NC(=O)N2CC[C@@H](C)[C@H]2C(N)=O)sc1-c1ccnc(C(C)(C)C(F)(F)F)c1

>  <test-result>
7.72

$$$$

Now look at this one.
Q. Quick check: pIC50 of C[C@@H]1CCN(C(=O)Nc2nc3c(s2)-c2cc(C(C)(C)C(F)(F)F)ncc2OC3)[C@@H]1C(N)=O ?
A. 7.96
